Record form. Attribute: IC50. Fill in for each entry.
- SYSTEM_TESTED: Sentrin-specific protease 1 (Homo sapiens, UniProt Q9P0U3)
- Sequence (Q9P0U3 whole entry, the tested form may be a part): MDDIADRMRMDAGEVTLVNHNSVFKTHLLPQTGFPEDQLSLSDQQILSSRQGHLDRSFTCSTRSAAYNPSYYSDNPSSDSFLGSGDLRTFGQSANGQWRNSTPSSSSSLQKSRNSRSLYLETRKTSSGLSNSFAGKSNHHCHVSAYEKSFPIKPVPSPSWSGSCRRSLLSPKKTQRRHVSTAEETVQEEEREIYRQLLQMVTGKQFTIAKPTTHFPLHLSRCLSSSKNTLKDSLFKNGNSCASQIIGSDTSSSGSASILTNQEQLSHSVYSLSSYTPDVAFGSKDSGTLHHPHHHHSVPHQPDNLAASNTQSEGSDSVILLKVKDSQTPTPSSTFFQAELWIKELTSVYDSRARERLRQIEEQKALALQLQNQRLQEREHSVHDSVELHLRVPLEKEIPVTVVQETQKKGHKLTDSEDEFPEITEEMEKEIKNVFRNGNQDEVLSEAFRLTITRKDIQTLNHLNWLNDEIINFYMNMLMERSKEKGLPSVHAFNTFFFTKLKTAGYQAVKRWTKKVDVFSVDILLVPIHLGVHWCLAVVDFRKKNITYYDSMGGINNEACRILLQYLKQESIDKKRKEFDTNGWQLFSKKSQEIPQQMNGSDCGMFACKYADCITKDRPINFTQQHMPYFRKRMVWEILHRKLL
- EXPERIMENT: Dose response confirmation of small molecule inhibitors of the catalytic domain of the SUMO protease, SENP1 in a FRET assay.
- Assay type: functional
- CONDITION: read-out: IC50_Mean
The source made the active and inactive calls.

In the examples that follow, each entry is paired with its recorded IC50.
Cc1cccc(-n2c(SCc3cc(=O)n4ccsc4n3)nc3ccccc32)c1: 9.71 µM (active)
c1ccc(NC2=Nc3cccc4cccc2c34)cc1: 17.2 µM (active)

# context switch: different molecule, same IC50
q: Item under review: COc1cc(S(=O)(=O)Nc2ccc3c(c2)C(=O)N(C)C3=O)ccc1NC(C)=O . Reported IC50?
a: 9.39 µM (active)

====

- SYSTEM_TESTED: Sentrin-specific protease 6 (Homo sapiens, UniProt Q9GZR1)
- Sequence (Q9GZR1 whole entry): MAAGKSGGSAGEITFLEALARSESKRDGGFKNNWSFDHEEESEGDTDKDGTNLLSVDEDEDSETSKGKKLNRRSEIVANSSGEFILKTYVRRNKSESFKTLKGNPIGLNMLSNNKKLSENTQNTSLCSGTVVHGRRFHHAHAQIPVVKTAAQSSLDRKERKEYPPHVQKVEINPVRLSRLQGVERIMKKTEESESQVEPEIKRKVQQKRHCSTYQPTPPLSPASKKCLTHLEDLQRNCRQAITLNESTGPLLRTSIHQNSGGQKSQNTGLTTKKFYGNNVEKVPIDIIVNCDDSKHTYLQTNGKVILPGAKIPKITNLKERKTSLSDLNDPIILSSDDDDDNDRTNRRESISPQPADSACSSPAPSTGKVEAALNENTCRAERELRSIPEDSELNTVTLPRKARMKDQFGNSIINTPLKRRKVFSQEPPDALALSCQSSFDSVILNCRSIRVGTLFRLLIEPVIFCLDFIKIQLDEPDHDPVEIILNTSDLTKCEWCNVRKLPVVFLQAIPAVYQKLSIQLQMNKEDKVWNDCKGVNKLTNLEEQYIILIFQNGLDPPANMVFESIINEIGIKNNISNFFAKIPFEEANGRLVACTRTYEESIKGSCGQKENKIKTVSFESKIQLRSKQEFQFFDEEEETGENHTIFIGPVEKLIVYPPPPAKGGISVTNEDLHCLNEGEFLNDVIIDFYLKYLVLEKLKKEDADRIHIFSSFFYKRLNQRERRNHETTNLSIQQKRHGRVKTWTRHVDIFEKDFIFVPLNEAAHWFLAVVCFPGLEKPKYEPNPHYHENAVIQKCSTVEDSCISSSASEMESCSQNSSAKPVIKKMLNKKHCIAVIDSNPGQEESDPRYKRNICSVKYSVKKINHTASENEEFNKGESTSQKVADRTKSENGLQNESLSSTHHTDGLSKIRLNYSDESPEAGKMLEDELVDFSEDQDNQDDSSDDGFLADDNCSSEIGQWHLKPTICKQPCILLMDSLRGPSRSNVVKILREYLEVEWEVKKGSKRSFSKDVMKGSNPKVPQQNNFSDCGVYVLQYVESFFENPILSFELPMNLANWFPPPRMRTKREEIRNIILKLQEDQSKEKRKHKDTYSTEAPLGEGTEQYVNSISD
- Assay type: functional
The source made the active and inactive calls.
I'd be grateful if you could share measured IC50 for these entries.

Known IC50 results, listed for orientation:
COC(=O)c1sccc1NC(=O)Cc1ccc(Br)cc1: 20.3 µM (active)
CC(=O)c1c(C)oc2ccc(OCc3ccccc3)cc12: 45.3 µM (active)
COc1ccc(C(=O)O/N=C(\N)c2ccc(OC)c(OC)c2)cc1: 11.5 µM (active)

q: Item: COCCn1c(C)cc(C(=O)CSc2nc3ccccc3s2)c1C Test system: Sentrin-specific protease 6 (Homo sapiens, UniProt Q9GZR1) Read-out: IC50 Value: ?;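 also: Luminescence-based dose-response confirmatory assay of SENP6 inhibition, following up an ultra-high-throughput screen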
a: 27.4 µM (active)

====

- System: Streptococcus sp. 'group A'
- EXPERIMENT: growth inhibition of control SK(-) GAS strain, dose response, counter-screen for streptokinase expression inhibitor project, luminescence, kanamycin, BacTiterGlo, confirmation (AID 1900)
- Assay type: functional, organism-based
Activity calls are given as the source filed them.
OBSERVABLE: EC50

Dear colleague, could you send me EC50 for each of the items below? Thanks.
1. Cc1cc(C)c2nc(NNC(=O)c3ccc(S(=O)(=O)N4CC(C)CC(C)C4)cc3)sc2c1 (configuration not stated)
2. Cc1nc2c(C)cccn2c(=O)c1NC(=O)c1ccc2c(c1)OCO2
3. Cc1cccc(-c2nnc(NC(=O)c3ccc(Cl)cc3)o2)c1

a:
697 nM (active)
> 150000 nM (not active)
99 nM (active)

Provide reported EC50 for each item, in the same order as listed.
1. O=C(COc1cccc(Cl)c1)Nc1ccccc1N1CCCCC1
2. COc1ccc(-c2c[nH]nc2-c2ccc(OC)cc2)cc1
3. CCOC(=O)CCC(=O)O[C@H]1[C@H](O[C@@H]2[C@@H](C)[C@H](O[C@H]3C[C@@](C)(OC)[C@@H](O)[C@H](C)O3)[C@@H](C)C(=O)O[C@H](CC)[C@@](C)(O)[C@H](O)[C@@H](C)C(=O)[C@H](C)C[C@@]2(C)O)O[C@H](C)C[C@@H]1N(C)C [ERYTHROMYCIN ETHYLSUCCINATE]
4. CC(=O)NS(=O)(=O)c1ccc(/N=c2\ssc3c2-c2ccc(C)cc2NC3(C)C)cc1

a:
["21100 nM (active)", "3330 nM (active)", "< 60 nM (active)", "2310 nM (active)"]

====

Exercise: for every item that follows, state its recorded EC50.
- SYSTEM_TESTED: Protein RecA (Mycobacterium tuberculosis)
- EXPERIMENT: Fluorescence Cell-Free Homogeneous Dose Retest to Identify Inhibitors of RecA-Intein Splicing Activity. [Related pubchem assays (depositor defined):AID2097, AID2223, AID489010, AID492950]
- Assay type: functional
Active and inactive are the calls of the source.

Please review the following examples before continuing.
CCO/C=C1/C(=O)N(C)C(=O)c2cc(OC)ccc21: > 380 µM (inactive)
CCOC(=O)C1CCN(C(=O)c2c(C)oc3c2C(=O)c2ccccc2C3=O)CC1: 0.645 µM (active)
CC(=O)NC1=NN(c2ccccc2)C(=O)C1: 5.21 µM (active)
CCN(CC)CCOc1ccc(/C(=C(/Cl)c2ccccc2)c2ccccc2)cc1 [CLOMIPHENE]: 12.4 µM (active)

Below: the item to evaluate.
q: Need EC50 of O=C1C(Cl)=C(N2CCOCC2)C(=O)N1c1ccccc1Cl , thanks.
a: 2.09 µM (active)

====

Reported AC50, Cytochrome P450 1A2 (Homo sapiens).

Examples from the recorded data:
CN1C(=O)C(CC(=O)Nc2ccc(F)cc2)N(CCCc2ccccc2)C1=S (stereo not drawn): 25.1 µM (inconclusive)
COc1ccc(Nc2cc(=O)n(C3CCCCC3)c(=O)[nH]2)c(OC)c1: 31.6 µM (inconclusive)

Kindly give each listed record's AC50.
1. O=C(Oc1ccccc1)N1CCC[C@@]2(CCN(C(c3ccccc3)c3ccccc3)C2)C1
2. C=CCn1cc(Cl)c(=O)n(CC=C)c1=O
3. C[C@H]1C2=C3C(CC[C@H]4C(OCc5ccc(F)cc5C(F)(F)F)OC[C@](C)([C@@H]34)N(C(=O)OC(C)(C)C)C2)C2COC(=O)OCC21 (stereo partly drawn)
4. Cc1ccc(CN(C(=O)c2cc3ccccc3oc2=O)C2CCS(=O)(=O)C2)cc1 (stereo not drawn)

a:
1: 25.1 µM (inconclusive); 2: 14.1 µM (inconclusive); 3: 6.31 µM (inconclusive); 4: 31.6 µM (inconclusive)

====

Assignment: determine reported EC50 for the given molecules.
- SYSTEM_TESTED: RNA-binding protein pos-1 (Caenorhabditis elegans, UniProt G5EF15)
- Sequence (G5EF15 whole entry): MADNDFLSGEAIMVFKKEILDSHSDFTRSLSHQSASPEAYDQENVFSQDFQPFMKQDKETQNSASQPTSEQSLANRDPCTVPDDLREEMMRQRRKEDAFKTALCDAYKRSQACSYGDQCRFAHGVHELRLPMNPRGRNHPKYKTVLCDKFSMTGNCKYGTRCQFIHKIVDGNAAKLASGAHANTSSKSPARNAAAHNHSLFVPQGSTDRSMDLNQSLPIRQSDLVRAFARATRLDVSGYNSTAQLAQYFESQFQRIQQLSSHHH
- EXPERIMENT: inhibitors of POS-1/mex-3 RNA binding, dose response, biochemical, fluorescence polarization (AID 1964);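 also: purified POS-1 fused to maltose binding protein made in E. coli; potency of compounds blocking POS-1 binding to fluorescent RNA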
The source made the active and inactive calls.

Some solved entries appear below for comparison.
Cc1cc(=O)oc2c(CN3CCC(C)CC3)c(O)c(Cl)cc12: > 300 µM (not active)
C=CCn1c(Cc2nc3ccccc3[nH]2)n[nH]c1=S: 80.2 µM (active)
COc1ccc(C2C(C(=O)c3cccs3)=C(O)C(=O)N2c2nnc(C)s2)cc1OC (configuration not stated): 7.2 µM (active)
CC(=O)C(=NNc1nc2c([nH]1)c(=O)n(C)c(=O)n2C)C(C)=O: 73.9 µM (active)
COc1cccc(N/N=C2/C(=O)Nn3c2nc(C)cc3=O)c1: > 300 µM (inconclusive)

Value sought for every listed molecule: EC50.
1. CCN(C(=O)c1cc(Cl)ccc1OC)C1CCCCC1
2. COc1cccc(C2c3c(oc4ccccc4c3=O)C(=O)N2Cc2ccco2)c1 (configuration not stated)

a:
["> 300 µM (not active)", "36.3 µM (active)"]

====

- SYSTEM_TESTED: Short transient receptor potential channel 4 (Mus musculus)
- Sequence (Q9QUQ5 whole entry): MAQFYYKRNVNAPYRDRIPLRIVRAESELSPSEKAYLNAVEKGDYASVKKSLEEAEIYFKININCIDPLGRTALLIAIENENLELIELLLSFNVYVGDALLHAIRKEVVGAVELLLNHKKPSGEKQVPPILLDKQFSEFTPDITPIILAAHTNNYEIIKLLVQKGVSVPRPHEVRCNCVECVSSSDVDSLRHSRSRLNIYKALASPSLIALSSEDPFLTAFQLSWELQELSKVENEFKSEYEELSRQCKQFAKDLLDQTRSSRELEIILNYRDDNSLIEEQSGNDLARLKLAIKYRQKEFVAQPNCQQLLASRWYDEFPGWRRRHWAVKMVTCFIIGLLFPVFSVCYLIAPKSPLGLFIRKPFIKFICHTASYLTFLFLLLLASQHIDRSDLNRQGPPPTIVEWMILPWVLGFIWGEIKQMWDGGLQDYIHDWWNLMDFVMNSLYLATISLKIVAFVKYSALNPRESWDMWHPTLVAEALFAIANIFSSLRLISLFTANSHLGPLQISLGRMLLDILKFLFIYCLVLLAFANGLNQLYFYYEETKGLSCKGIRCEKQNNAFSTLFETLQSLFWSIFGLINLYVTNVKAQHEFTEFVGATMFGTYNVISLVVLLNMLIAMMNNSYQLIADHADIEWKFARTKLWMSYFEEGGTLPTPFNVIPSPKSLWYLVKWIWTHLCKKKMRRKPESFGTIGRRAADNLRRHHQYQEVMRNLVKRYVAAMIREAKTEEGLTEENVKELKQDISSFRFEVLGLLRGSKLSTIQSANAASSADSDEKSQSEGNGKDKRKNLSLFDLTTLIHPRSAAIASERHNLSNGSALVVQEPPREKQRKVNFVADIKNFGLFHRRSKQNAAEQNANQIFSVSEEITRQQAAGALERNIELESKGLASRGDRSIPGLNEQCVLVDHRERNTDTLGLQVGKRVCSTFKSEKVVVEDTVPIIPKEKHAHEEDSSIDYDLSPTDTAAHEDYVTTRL
- EXPERIMENT: mouse TRPC4 channel inhibitors, dose response, cell-based, HEK293 TRPC4/mu-opioid, Fluo-4 calcium (AID 434942);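 also: potency of inhibitors blocking the TRPC4 calcium response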
- Format: functional
The source made the active and inactive calls.
For each entry below, report its EC50 value.

Examples with answers:
CCc1ccc2nc(NC(=N)N)nc(C)c2c1: 15 µM (active)
O=c1c2c(-c3ccccc3)csc2ncn1/N=C/c1cccc([N+](=O)[O-])c1O: 10.6 µM (active)

As a next step, examine the compound that follows.
q: Could you share which EC50 value was measured for CCN(C(=O)c1c(-c2ccccc2Cl)noc1C)C1CCCCC1 ?
a: 9.44 µM (active)

====

- EXPERIMENT: growth suppression of beta-catenin-knockout colon cells, dose response, cell-based, HCT116, human colon tumor (AID 1045);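 also: HCT116 colon tumor cells with beta catenin knocked out; cells exposed to compound for 60 hours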
- Format: functional
Activity calls are given as the source filed them.
OBSERVABLE: EC50

Worked cases, answers included:
Cc1oc2c(c1C(=O)c1ccccc1)C(=O)C(=O)c1ccccc1-2: 2.26 µM (active)
CCCc1nc(SCC(=O)N2CCC(Cc3ccccc3)CC2)c2c(=O)n(C)c(=O)n(C)c2n1: 33.7 µM (active)
CCCCC1(CCCC)C(=O)N=C(Nc2cccc(C)c2)NC1=O: 12.2 µM (active)

q: # get_value(readout='EC50', item= Cc1ccc(-n2nc3ccc(NC(=O)/C=C/c4ccco4)cc3n2)cc1C )
a: 11.7 µM (active)

====

- SYSTEM_TESTED: Replicative DNA helicase DnaB (Mycobacterium tuberculosis)
- Sequence (P9WMR3 whole entry): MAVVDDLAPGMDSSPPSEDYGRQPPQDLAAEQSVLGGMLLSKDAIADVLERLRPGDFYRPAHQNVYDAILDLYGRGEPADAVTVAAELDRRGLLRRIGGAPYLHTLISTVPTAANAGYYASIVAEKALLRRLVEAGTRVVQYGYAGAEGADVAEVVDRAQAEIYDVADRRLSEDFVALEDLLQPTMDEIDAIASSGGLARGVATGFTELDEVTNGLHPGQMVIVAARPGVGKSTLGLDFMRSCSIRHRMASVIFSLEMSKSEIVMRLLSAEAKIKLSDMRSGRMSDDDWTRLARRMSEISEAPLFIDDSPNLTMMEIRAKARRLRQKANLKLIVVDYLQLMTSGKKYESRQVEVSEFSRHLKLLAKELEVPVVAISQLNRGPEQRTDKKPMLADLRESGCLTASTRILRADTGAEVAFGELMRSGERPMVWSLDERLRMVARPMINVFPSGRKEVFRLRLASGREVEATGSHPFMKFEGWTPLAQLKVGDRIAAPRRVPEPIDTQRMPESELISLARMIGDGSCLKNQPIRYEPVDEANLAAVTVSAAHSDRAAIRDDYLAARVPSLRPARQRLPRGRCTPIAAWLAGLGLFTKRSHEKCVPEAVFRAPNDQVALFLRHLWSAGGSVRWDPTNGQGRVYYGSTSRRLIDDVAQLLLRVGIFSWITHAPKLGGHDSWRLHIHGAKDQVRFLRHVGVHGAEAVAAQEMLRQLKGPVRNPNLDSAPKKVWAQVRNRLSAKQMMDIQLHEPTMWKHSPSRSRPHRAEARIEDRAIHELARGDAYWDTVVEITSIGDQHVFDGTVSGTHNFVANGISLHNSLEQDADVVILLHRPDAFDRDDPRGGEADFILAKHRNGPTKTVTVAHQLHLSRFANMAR
- EXPERIMENT: DnaB intein splicing inhibitors, dose response, biochemical, cell-free fluorescence (AID 449749)
- Format: functional
Active and inactive are the calls of the source.
Outcome field: choose from y for active, n for inactive

Worked set:
Cc1ccc(S(=O)(=O)Nc2c(O)ccc3ccccc23)cc1: y
CCCc1[nH][nH]c(=O)c1C(c1ccccc1)C(C#N)C#N (centres undefined): y
CCN(CC)CCOc1ccc(/C(=C(/Cl)c2ccccc2)c2ccccc2)cc1: y
CCOC(=O)C1CCN(C(=O)c2c(C)oc3c2C(=O)c2ccccc2C3=O)CC1: y
Cc1ccc(CNC(=O)c2ccc(N(C)S(=O)(=O)c3ccccc3)cc2)cc1: y
CC(=O)NC1=NN(c2ccccc2)C(=O)C1: y
O=C(CCl)N1c2ccccc2CCc2ccccc21: y
CC(C)(C)c1c(Cl)c(O)c(-c2ccccc2)c(=O)n1-c1ccccc1: y

q: Give the logged outcome of this assay for the following compound: COC(=O)Cc1n[nH]c2c1C1(CCSCC1)C(C#N)=C(N)O2
a: y

q: Just curious, what result did CCn1c(COc2ccc(Cl)cc2)nnc1SC1CCc2ccccc2C1=O (centres undefined) get here?
a: y

q: Any idea what this test logged for Oc1cccc(/C=N/c2cccc3ccccc23)c1O ?
a: y

q: Check the results log: what was the call for COC(=O)CN1C(=O)C2(C(C#N)=C(N)Oc3c2c(C)nn3-c2ccccc2)c2ccccc21 (centres undefined) ?
a: y

q: What did this assay record as the result for COc1ccc(C(=O)/C(=C/c2cccs2)c2nc3ccccc3o2)cc1 ?
a: n

q: Kindly provide the recorded test outcome for the following compound: CO/C(O)=C1/C(C)=NC(=S)NC1c1ccc(OC(=O)c2ccco2)cc1 (centres undefined)
a: y

q: For O=C1C(Cl)=C(N2CCOCC2)C(=O)N1c1ccccc1Cl , what call appears in the results of this test?
a: y

q: Record lookup: outcome of this test for CC1=NNC(=O)C1C(c1ccccc1)C1C(=O)NN=C1C (centres undefined) ?
a: y

q: // outcome(item) with item = C/C(=N\NC(=O)Cc1cc(O)[nH]n1)c1cccc([N+](=O)[O-])c1
a: y

Attribution: ChEMBL document CHEMBL1201862
